Data credit: the NIST ThermoML archive (doi:10.1007/s10765-014-1617-1)

- Protocol conditions: 298.15 K; 101.33 kPa; Liquid; Vibrating tube method
Measurement type: mass density (kg/m3)

{"columns": ["Compound", "Measurement type", "Meas value"],
 "data": [
  ["CCCCn1cc[n+](C)c1.N#C[B-](C#N)(C#N)C#N [1-butyl-3-methyl-1H-imidazolium tetracyanoborate]", "mass density", 1009.83],
  ["CCCCCCCCCCn1cc[n+](C)c1.N#C[B-](C#N)(C#N)C#N [1-decyl-3-methyl-1H-imidazolium tetracyanoborate]", "mass density", 962.51],
  ["CCCCCCCCn1cc[n+](C)c1.N#C[B-](C#N)(C#N)C#N [1-methyl-3-octylimidazolium tetracyanoborate]", "mass density", 975.1],
  ["CCCCCCCCn1cc[n+](C)c1.N#CC(=C=[N-])C#N [1-methyl-3-octylimidazolium tricyanomethanide]", "mass density", 1000.54]
]}

---

- Protocol notes: refractive index (Na D-line) (dimensionless)
- Protocol conditions: 313.15 K; 101.33 kPa; Liquid; Standard Abbe refractometry
# key: entry, value: refractive index

{"columns": ["Compound", "refractive index"],
 "data": [
  ["CCCCCCCCCC[n+]1ccn(C)c1.N#C[C-](C#N)C#N [3-decyl-1-methylimidazolium tricyanomethanide]", 1.4918],
  ["CCCCCCCCn1cc[n+](C)c1.N#CC(=C=[N-])C#N [1-methyl-3-octylimidazolium tricyanomethanide]", 1.4964],
  ["CCCCCCCCn1cc[n+](C)c1.N#C[B-](C#N)(C#N)C#N [1-methyl-3-octylimidazolium tetracyanoborate]", 1.4509],
  ["CCn1cc[n+](C)c1.N#C[C-](C#N)C#N [1-ethyl-3-methyl-1H-imidazolium tricyanomethanide]", 1.5071],
  ["CCCCn1cc[n+](C)c1.N#C[B-](C#N)(C#N)C#N [1-butyl-3-methyl-1H-imidazolium tetracyanoborate]", 1.4473],
  ["CCCCCC[n+]1ccn(C)c1.N#C[C-](C#N)C#N [3-hexyl-1-methylimidazolium tricyanomethanide]", 1.4994],
  ["CCCCCCCCCCn1cc[n+](C)c1.N#C[B-](C#N)(C#N)C#N [1-decyl-3-methyl-1H-imidazolium tetracyanoborate]", 1.4522]
]}

---

- Protocol notes: refractive index (Na D-line) (dimensionless)
- Protocol conditions: 293.15 K; 101.33 kPa; Liquid; Standard Abbe refractometry

{"columns": ["Molecule", "refractive index"],
 "data": [
  ["CCCCCCCCCC[n+]1ccn(C)c1.N#C[C-](C#N)C#N [3-decyl-1-methylimidazolium tricyanomethanide]", 1.4981],
  ["CCCCCCCCCCn1cc[n+](C)c1.N#C[B-](C#N)(C#N)C#N [1-decyl-3-methyl-1H-imidazolium tetracyanoborate]", 1.4584],
  ["CCCCCCCCn1cc[n+](C)c1.N#CC(=C=[N-])C#N [1-methyl-3-octylimidazolium tricyanomethanide]", 1.5021]
]}

---

- Protocol conditions: 343.15 K; 101.33 kPa; Liquid; Vibrating tube method
Output fulfilled for records whose mass density is lower than 1000 kg/m3, not fulfilled for records at or above 1000 kg/m3.

{"columns": ["Compound", "Assigned label"],
 "data": [
  ["CCCCCCCCCC[n+]1ccn(C)c1.N#C[C-](C#N)C#N [3-decyl-1-methylimidazolium tricyanomethanide]", "fulfilled"],
  ["CCn1cc[n+](C)c1.N#C[C-](C#N)C#N [1-ethyl-3-methyl-1H-imidazolium tricyanomethanide]", "not fulfilled"],
  ["CCCCCCCCn1cc[n+](C)c1.N#C[B-](C#N)(C#N)C#N [1-methyl-3-octylimidazolium tetracyanoborate]", "fulfilled"],
  ["CCCCCCCCCCn1cc[n+](C)c1.N#C[B-](C#N)(C#N)C#N [1-decyl-3-methyl-1H-imidazolium tetracyanoborate]", "fulfilled"]
]}
